Test system: EKVX
Experiment: NCI tumour cell line growth inhibition, 48 h
Activity calls are given as the source filed them. Cut-off read from the data, not from the text of the source: active = GI50 up to about 1.1 µM and inactive = higher.

{"columns": ["MOLECULE", "GI50"],
 "data": [
  ["Cc1cc(C)nc(NS(=O)(=O)c2ccc(NNC(=O)c3cccc4c(=O)c5ccccc5[nH]c34)cc2)n1", "23.1 µM (inactive)"],
  ["CSC1=NN=C(SC)NN1", "0.186 µM (active)"],
  ["O=c1[nH]c(=O)n([C@H]2C[C@@H](CO)[C@@H](O)C2)cc1I", "> 100 µM (inactive)"],
  ["O=C1CCCC/C1=C(\\Br)I", "18.7 µM (inactive)"],
  ["CCOC(=O)c1cc2c([nH]1)c(OC(C)=O)cc1c2ccn1Cc1ccccc1", "99.5 µM (inactive)"],
  ["CC(=O)c1cn(-c2ccc(Cl)cc2)c(=O)c2c(N)n[nH]c12", "> 100 µM (inactive)"],
  ["N#C/C(=C1\\N=NC(N)=C(c2ccc(Cl)cc2)C1=O)c1ccc(Cl)cc1", "> 100 µM (inactive)"],
  ["CC1=C2[C@@H](c3ccccc3)C3C=CC2(c2ccccc23)N(C(=O)Nc2cccc3ccccc23)C1=O (stereo not given in full)", "> 100 µM (inactive)"],
  ["COc1ccc(/C(Cl)=C(\\C=O)c2ccc(F)cc2)cc1OC", "5 µM (inactive)"],
  ["Cc1ccc(S(=O)(=O)NC2C(=O)c3ccccc3C(=O)C2n2ccnc2)cc1 (stereo not given)", "> 100 µM (inactive)"]
]}

----------
Test system: UACC-257
Test: NCI tumour cell line growth inhibition, 48 h
The source made the active and inactive calls. No stated cut-off is given here; in the data, active = GI50 up to about 1.1 µM and inactive = higher.
// values below are reported GI50

{"columns": ["COMPOUND", "GI50"],
 "data": [
  ["CCOC(=O)c1[nH]cc(C)c1-c1cccn1-c1ccc(Cl)cc1[N+](=O)[O-]", "20.1 µM (inactive)"],
  ["CCC/N=C/c1cc(Cc2ccc(O)c(/C=N/CCC)c2)ccc1O", "19.1 µM (inactive)"],
  ["NCCCN1CCN(CCCNc2ccc3nnn4c5ccccc5c(=O)c2c34)CC1", "28.2 µM (inactive)"],
  ["COc1ccc(CN2C(=O)[C@@H]3Cc4c(OC)c(C)c(OC)c(OC)c4[C@H](/C2=C\\c2cc(OC)c(OC)c(C)c2OC)N3C(=O)OC(C)C)cc1", "8.28 µM (inactive)"],
  ["Cc1cccc(NC(=O)/C(=N\\N)C(c2cnc3ccc([N+](=O)[O-])cc3n2)[N+](=O)[O-])c1C (centres undefined)", "> 100 µM (inactive)"],
  ["Cc1nc2c(n1CCO)C(=O)c1ccccc1C2=O", "16.6 µM (inactive)"],
  ["O=c1[nH]c(=O)n([C@H]2C[C@@H](CO)[C@@H](O)C2)cc1I", "> 100 µM (inactive)"],
  ["CCCCCCCCCCCCCCNCC(OCC)OCC", "16.7 µM (inactive)"],
  ["CC1C2(C)OC(=N)C(C#N)(C(c3ccco3)O2)C1(C#N)C#N (centres undefined)", "20.5 µM (inactive)"],
  ["CC/C(C)=C1\\CCC(CN(C)C)C1=O (centres undefined)", "17.3 µM (inactive)"],
  ["C[C@@H](c1ccccc1)N1CN(C(=O)OCc2ccccc2)C(CO)C1=O (some centres undefined)", "95.7 µM (inactive)"],
  ["Nc1ccc(C(=O)CC2(O)C(=O)Nc3ccccc32)cc1 (centres undefined)", "> 100 µM (inactive)"],
  ["O=c1ccn([C@@H]2O[C@H](CO)[C@@H](O)[C@H]2F)c(=O)[nH]1", "> 100 µM (inactive)"],
  ["COC(=O)CCC(C)[C@H]1CCC2C3C(C[C@H](OC(C)=O)[C@@]21C)[C@@]1(C)CCC2(C[C@H]1C[C@H]3OC(C)=O)OOC1(CCCCCCC1)OO2 (some centres undefined)", "5.35 µM (inactive)"],
  ["Cc1ccc(N2C(=O)C3CSCN3C2=O)cc1 (centres undefined)", "> 100 µM (inactive)"],
  ["COC(=O)C1Cc2c([nH]c3ccccc23)C(C2CCCCC2)N1 (centres undefined)", "> 100 µM (inactive)"],
  ["CCOC(=O)C1=C(C)CC2C(=O)OC(=O)C2C1(C)C (centres undefined)", "> 100 µM (inactive)"],
  ["CCC(C)N1CN(c2ccccc2)C2(CCN(CCCC3(c4ccc(F)cc4)OCCO3)CC2)C1=O (centres undefined)", "1.98 µM (inactive)"],
  ["Cc1c(C(=O)OCc2ccccc2)[n+]([O-])c2cc(F)c(F)cc2[n+]1[O-]", "2.19 µM (inactive)"],
  ["CC(=O)OC1CCC2(C)C3CCC4(C)C(c5ccc(=O)oc5)CC5OC54C3CCC2(O)C1 (centres undefined)", "3.04 µM (inactive)"],
  ["S=c1[nH]c2c(Cl)c(Cl)c(Cl)c(Cl)c2[nH]1", "19.4 µM (inactive)"],
  ["O=C1CSC(c2ccccc2[N+](=O)[O-])N1c1ccc(-c2ccc(-n3c(-c4ccccc4)nc4ccccc4c3=O)cc2)cc1 (centres undefined)", "> 100 µM (inactive)"],
  ["CCN(CC)CCNC(=O)c1nn(-c2ccc(Cl)cc2)c2c1CCc1cc(OC)ccc1-2", "1.82 µM (inactive)"],
  ["COc1ccc(-n2sc3ncccc3c2=O)cc1", "18.7 µM (inactive)"],
  ["COc1ccc(C2SCC(=O)N2c2ccc(-c3ccc(-n4c(-c5ccccc5)nc5ccccc5c4=O)cc3)cc2)cc1 (centres undefined)", "> 100 µM (inactive)"],
  ["CC(C)CSCC1OC(n2cnc3c(N)nccc32)C(O)C1O (centres undefined)", "> 85.3 µM (inactive)"],
  ["CN1C(=O)C(=CN)C(=O)N(C)C1=O", "> 100 µM (inactive)"],
  ["N#CC(/C(CCC(=O)Nc1ccc(Cl)cc1)=N/NC(=O)c1cc2ccccc2cc1O)c1ccccc1 (centres undefined)", "30.7 µM (inactive)"],
  ["N#CN=C(NCCO)NCCO", "> 100 µM (inactive)"],
  ["CCCC[C@H]1CCN2C[C@@H](O)[C@@H](O)[C@H]2[C@@H]1O", "> 100 µM (inactive)"],
  ["COC(=O)C(Cc1ccc2c(c1)CCC2)Cc1ccc2c(c1)CCC2", "37 µM (inactive)"],
  ["O=C(CC1(O)C(=O)Nc2ccc(Br)cc21)c1ccc(Cl)cc1 (centres undefined)", "30.2 µM (inactive)"],
  ["CSc1nc(Cl)c(Br)c(Sc2nc(N)nc3nc[nH]c23)n1", "13.9 µM (inactive)"],
  ["CC[C@H](C)[C@H]1NC(=O)[C@@H](NC(=O)[C@@H](CC(C)C)N(C)C(=O)C2CCCN2C(=O)[C@H](C)O)[C@@H](C)OC(=O)[C@H](Cc2ccc(OC)cc2)N(C)C(=O)[C@@H]2CCCN2C(=O)[C@H](CCCCNC(=O)OCc2ccccc2)NC(=O)[C@H](C)C(=O)[C@H](C(C)C)OC(=O)C[C@@H]1O (some centres undefined)", "2.49 µM (inactive)"],
  ["N#C/C(=C/n1c(=S)[nH]c2ccc([N+](=O)[O-])cc21)C(N)=O", "> 100 µM (inactive)"],
  ["NS(=O)(=O)c1ccc2c(c1)OCCOCCOCCOCCO2", "> 100 µM (inactive)"],
  ["CCOC(=O)C(NC(=O)c1ccccc1)(c1ccc(S(=O)(=O)Nc2onc(C)c2C)cc1)C(F)(F)F (centres undefined)", "> 100 µM (inactive)"],
  ["CC[C@@H]1OC2(C)CC(S(=O)(=O)c3ccccc3O)CC1O2 (some centres undefined)", "> 100 µM (inactive)"],
  ["O=C(CCc1nnc2s/c(=C\\c3ccc(Cl)c(Cl)c3)c(=O)n12)Nc1ccc(Cl)c(Cl)c1", "> 100 µM (inactive)"]
]}
